experimental.protocol: Cytotoxicity against human HepG2 cells
Format: cell-based
condition.parameters: read-out: TC50 (the source's name)
Measured CC50 by item

In the examples that follow, each entry is paired with its recorded CC50.
compound.structure.string | recorded.metric | result
CC(C)(C)CC#Cc1cc2c(Nc3ccc(OCc4cccc(F)c4)c(Cl)c3)ncnc2s1 | CC50 | > 32 µM
CCOC(=O)CN(C)CC#Cc1cc2c(Nc3ccc(OCc4cccc(F)c4)c(Cl)c3)ncnc2s1 | CC50 | > 28 µM
CC(C)(C)OC(=O)N1CCC[C@H]1C#Cc1cc2ncnc(Nc3ccc(OCc4cccc(F)c4)c(Cl)c3)c2s1 | CC50 | > 26 µM

Shift focus to the following entry.
Give its CC50 value. Item: `Fc1cccc(COc2ccc(Nc3ncnc4cc(C#CCN5CCSCC5)sc34)cc2Cl)c1`
> 28 µM
